target_of_assay: human histamine H3 receptor (Homo sapiens, UniProt Q9Y5N1)
Sequence (Q9Y5N1 whole entry): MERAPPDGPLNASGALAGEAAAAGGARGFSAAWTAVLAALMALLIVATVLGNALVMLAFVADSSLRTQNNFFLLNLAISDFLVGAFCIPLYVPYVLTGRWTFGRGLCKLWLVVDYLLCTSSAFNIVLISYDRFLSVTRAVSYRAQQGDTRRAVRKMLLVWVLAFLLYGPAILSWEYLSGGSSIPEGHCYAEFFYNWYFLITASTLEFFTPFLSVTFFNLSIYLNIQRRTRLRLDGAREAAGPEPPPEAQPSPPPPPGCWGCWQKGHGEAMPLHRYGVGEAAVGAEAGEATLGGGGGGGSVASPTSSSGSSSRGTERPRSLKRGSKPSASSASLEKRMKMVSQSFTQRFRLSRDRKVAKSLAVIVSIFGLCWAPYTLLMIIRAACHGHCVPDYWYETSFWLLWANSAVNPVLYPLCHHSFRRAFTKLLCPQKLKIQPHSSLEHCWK
method: H3 GTPγS assay (SPA method), histamine H3 in vitro assay
measurement_parameters: GTPγ[35S] binding to membranes of cells expressing human H3; antagonist mode with R-γ-Me-Histamine at EC80 (30 nM); in one embodiment HCl salts tested; read-out: Potency (functional potency as indicated by IC50)
pIC50: −log10 of the molar value.
measurement_label: pIC50

Note to self: pIC50 recorded for c1nc2ccc(-c3ccc4c(c3)nc3n4CCN(C4CCC4)CC3)cn2n1 was ≥ 7.00

Note to self: pIC50 recorded for COc1ccnc(Oc2ccc3nc4n(c3c2)CCN(C2CCC2)CC4)n1 was ≥ 6.00

Note to self: pIC50 recorded for c1ccc2c(c1)CCN(c1ccc3c(c1)nc1n3CCN(C3CCC3)CC1)C2 was ≥ 8.00

Note to self: pIC50 recorded for c1cc2c(cc1N1CCCCC1)nc1n2CCN(C2CCC2)CC1 was ≥ 8.00

Note to self: pIC50 recorded for CN1CCN(c2cnc(-c3ccc4c(c3)nc3n4CCN(C4CCC4)CC3)cn2)CC1 was ≥ 8.00

Note to self: pIC50 recorded for NCc1ccc(-c2ccc3nc4n(c3c2)CCN(C2CCC2)CC4)cc1 was ≥ 7.00

Note to self: pIC50 recorded for Fc1ccc(N2CCN(c3ccc4c(c3)nc3n4CCN(C4CCC4)CC3)CC2)cc1 was ≥ 8.00

Note to self: pIC50 recorded for c1cnc(Oc2ccc3c(c2)nc2n3CCN(C3CCC3)CC2)cn1 was ≥ 7.00

Note to self: pIC50 recorded for FC1CCCN(c2ccc3c(c2)nc2n3CCN(C3CCC3)CC2)C1 (stereo not drawn) was ≥ 8.00
